Reference source for all entries: patent US9452997B2

Exercise: state measured pIC50 for each of the compounds provided.
- Study Target: Recombinant autotaxin (Homo sapiens)
- Test Summary: Autotaxin assay (Amplex Red, LPC substrate)
- Assay Conditions: recombinant autotaxin, LPC substrate, Amplex Red detection; values given as upper bounds
pIC50: −log10 of the molar value.

Req: Supply measured pIC50 of `COc1ccc(Cl)cc1NC(=O)CN1CCC(N2CCN(C(=O)c3ccc4[nH]nnc4c3)CC2)CC1` in your reply.
Resp: > 5.00

Req: Supply measured pIC50 of `COc1c(C)cc(COC(=O)N2CCN(C3CCN(C(=O)c4ccc5[nH]nnc5c4)CC3)CC2)cc1C` in your reply.
Resp: > 5.00

Req: Supply measured pIC50 of `O=C(OCc1c(F)c(F)c(C(F)(F)F)c(F)c1F)N1CCN(C2CCN(C(=O)c3ccc4[nH]nnc4c3)CC2)CC1` in your reply.
Resp: > 6.00

Req: Supply measured pIC50 of `O=C(OCc1ccc(C(F)(F)F)cc1)N1CCC(N2CCC(c3ccc4[nH]c(=O)oc4c3)=N2)CC1` in your reply.
Resp: > 5.00

Req: Supply measured pIC50 of `O=C(Nc1ccc2[nH]nnc2c1)c1cncc(N2CCN(C(=O)OCc3ccc(Cl)cc3)CC2)c1` in your reply.
Resp: > 4.52

Req: Supply measured pIC50 of `O=C(c1ccc2[nH]nnc2c1)N1CCC(N2CCN(C(=O)c3nc4cc(C(F)(F)F)ccc4[nH]3)CC2)CC1` in your reply.
Resp: > 5.00

Req: Supply measured pIC50 of `O=C(OCc1cc(C(F)(F)F)cc(C(F)(F)F)c1)N1CCN(C2CCN(C(=O)c3ccc4[nH]nnc4c3)CC2)C(=O)C1` in your reply.
Resp: > 6.00
